Parameter: pIC50. Scope: all listed entries.
test.system: HIV-1 RT (Human immunodeficiency virus type 1 group M subtype B, UniProt P03366)
protocol.summary: Homopolymer HIV Reverse Transcriptase Assay: Inhibitor IC50 Determination
Format: biochemical
experimental.context: purified recombinant enzyme, poly(rA)/oligo(dT)16 template-primer, [3H] dTTP, 37° C. 30 min
Value format note: pIC50 is -log10 of concentration (mol/L); just state the number.

Worked cases, answers included:
> print(dat)
                         compound.structure                               test.system  number
1  Cc1cc(C(=O)NC[C@@H](C)O)ccc1NC(=O)Cc1ccc(Cl)c(Oc2cc(Cl)cc(C#N)c2)c1F  HIV-1 RT (Human immunodeficiency virus type 1 group M subtype B, UniProt P03366)    7.74
2  Cc1cc(C(=O)NCCN2CCC(O)CC2)ccc1NC(=O)Cc1ccc(Br)c(Oc2cc(Cl)cc(C#N)c2)c1F  HIV-1 RT (Human immunodeficiency virus type 1 group M subtype B, UniProt P03366)    7.26
3  Cc1cc(C(=O)NCCN(C)C)ccc1NC(=O)Cc1ccc(Cl)c(Oc2cc(Cl)cc(C#N)c2)c1F  HIV-1 RT (Human immunodeficiency virus type 1 group M subtype B, UniProt P03366)    7.81

Now turn to the next molecule.
Item under review: `Cc1cc(C(=O)NCCN2CCNCC2)ccc1NC(=O)Cc1ccc(Br)c(Oc2cc(Cl)cc(C#N)c2)c1F` . Reported pIC50?
7.68

* * *

test.system: HIV-1 RT (Human immunodeficiency virus type 1 group M subtype B)
protocol.summary: Heteropolymer HIV reverse Transcriptase Assay: Inhibitor IC50 Determination
Format: biochemical
experimental.context: RNA-dependent DNA polymerase activity, biotinylated DNA primer/RNA template, SPA beads, 30°C 30 min
quantity: IC50
The reply should read as a number followed by its unit.

Worked cases, answers included:
> print(dat)
                                   molecule  quantity  result
1  CC(C)(CN1CCCC1)NC(=O)c1ccc(NC(=O)Cc2ccc(Br)c(Oc3cc(Cl)cc(C#N)c3)c2F)c(Cl)c1 [Compound I-45]      IC50  4.1 nM
2  Cl.N#Cc1cc(Cl)cc(Oc2c(Br)ccc(CC(=O)Nc3ccc(C(=O)NCCN4CCC(F)(F)CC4)cc3Cl)c2F)c1 [Compound I-40, hydrochloride salt]      IC50   37 nM
3  CN1CCC(NC(=O)c2ccc(NC(=O)Cc3ccc(Br)c(Oc4cc(Cl)cc(C#N)c4)c3F)c(Cl)c2)C1 (stereo not shown) [Compound I-50]      IC50  6.9 nM

Now turn to the next molecule.
Provide value of IC50 for this record tested with HIV-1 RT (Human immunodeficiency virus type 1 group M subtype B): N#Cc1cc(Cl)cc(Oc2c(Br)ccc(CC(=O)Nc3ccc(C(=O)NC4CCS(=O)(=O)C4)cc3Cl)c2F)c1 (stereo not shown) [Compound I-55]
16.3 nM

* * *

quantity: melting point (°C)
Respond with the bare value in °C.

> print(dat)
                                   molecule       quantity  number
1  CN1CCC(NC(=O)c2ccc(NC(=O)Cc3ccc(Br)c(Oc4cc(Cl)cc(C#N)c4)c3F)c(Cl)c2)C1 (stereo not shown) [Compound I-50]  melting point     204

Now turn to the next molecule.
Item under review: CC(CN(C)C)NC(=O)c1ccc(NC(=O)Cc2ccc(Br)c(Oc3cc(Cl)cc(C#N)c3)c2F)c(Cl)c1 (stereo not shown) . Reported melting point?
190.1
